- Tested on: MS2 coat protein
- testDescription: apparent KD of MS2 coat protein, switch ON state; designed switch direction (-1 OFF switch, 1 ON switch): -1; higher = weaker reporter binding
- experimentalSetup: FMN input: 0 or 200 uM; Eterna round: R93 (includes R88 designs)
assayEndpoint: apparent KD of MS2 coat protein (nM)
API: value field is a number in nM; no unit string.

seqText: AAAAAAAAAGGAUAUACAGGAGGUAAGGUCGGACAAAAAAAACAUGAGGAUCACCCAUGUAGAAGGUUUAAAAA [Excls2-IX]
apparent KD of MS2 coat protein (nM): 34.5
--
seqText: AGCUAGUGAGGAUAUACGAAUCUGUCAAAAGACGGAAGGGAACAUGAGGAUCACCCAUGUAGAAGGCACUAGCA [Web Mod 74% 6]
apparent KD of MS2 coat protein (nM): 31.9
--
seqText: AUAAACAGAGGAUAUACGCGGAUUAUUGAAAUUAUUGAUUCACAUGAGGAUCACCCAUGUAGAAGGCUGGAAAA [LROPPY Exclusion 2 - v04_doubled Us]
apparent KD of MS2 coat protein (nM): 35.7
--
seqText: AUAAUCCUAGGAUAUACAUGGAUAUACAUUCAUGUGGACCUACAUGAGGAUCACCCAUGUAGAAGGAGGAUGAA [Mat - Same state - Mayanna Mod - D138]
apparent KD of MS2 coat protein (nM): 35

// moving on: another record for apparent KD of MS2 coat protein
apparent KD of MS2 coat protein recorded for this sequence, AAACCACAUGAGGAUCACCCAUGUUAGGAUAUGCUAUGGAAAUAAAAAAUAAAACAUAGCAGAAGGGACAAAAA [Mat - Exclusion 1 - Eli mod - D35] , is 19.7

---

- Tested on: MS2 coat protein
- testDescription: apparent KD of MS2 coat protein; designed switch direction (-1 OFF switch, 1 ON switch): 1; higher = weaker reporter binding
- experimentalSetup: Eterna round: R95; input ligand: none
assayEndpoint: apparent KD of MS2 coat protein
// return the numeric value with its unit appended

seqText: GGUCCAGCCUGAGCUGGACCGAAGCGUGUACAUGAGGAUCACCCAUGUCAUGUACAAGCUUUUUGCUCGUCUUAUUG [JL-shm-2.10 JL Mod] (puzzle: Sensor for hsa-mir-208a)
apparent KD of MS2 coat protein: 285 nM
//
seqText: UGUUAACAUGAGGAUCACCCAUGUCAAAUGAAUGCAGGAUAUGGGAAGUAAUAAGAUAAACCAGAAGGGCAAGUUG [Altered State 1-17 - Jieux - Same State 1] (puzzle: Same State 1)
apparent KD of MS2 coat protein: 311 nM
//
seqText: UCUUGGUUUUUGCUCGUUUUUUGUGUUGAACAUGAGGAUCACCCAUGUAUUGUACGGUCCGGUUUGAUAAUGGUCCG [JMF 13] (puzzle: Sensor for hsa-mir-208a)
apparent KD of MS2 coat protein: 27.1 nM

// moving on: another record for apparent KD of MS2 coat protein
apparent KD of MS2 coat protein recorded for this sequence, UUAAAACAUGAGGAUCACCCAUGUAAUAAUAUGGGAGGAUAUCAGAUUUAAUUUAAUUUAUGAGAAGGCCUAAAUU [Mat - Same State 1 - Mod of Eli - D61] (puzzle: Same State 1) , is 512 nM

---

- System: MS2 coat protein
- testDescription: apparent KD of MS2 coat protein; higher = weaker reporter binding
- experimentalSetup: Eterna round: R107; input ligand: tryptophan 2.4 mM
assayEndpoint: apparent KD of MS2 coat protein (nM)
API: value field is a number in nM; no unit string.

seqText: GUAUGGAAACAUACUAGGGUAUCGUGAGAUACCAGUACAGAAAUGUACCCUUGGCAGCUCGCGCAUACAUGAGGAUCACCCAUGU [Ex Theophylline A 9]
assayEndpoint: apparent KD of MS2 coat protein
readoutValue: 19.7

Lab entry: MS2 coat protein assay, sequence GCGCUAUUUAUUGAUACCAGAUACAGGAAUCACAUGAGGAUCACCCAUGUGGAAUGAAGGAUCCCUUGGCAGCAAUAGUCAAAAU [theeternabot_sameState_MS2_Theo_B_9] , apparent KD of MS2 coat protein = 19.9

Lab entry: MS2 coat protein assay, sequence AAAACACAUGAGGAUCACCCAUGUCGUGAUACCAGUCAACAUGAGGACCCUUGGCAGCAUAAAAUGGGUAACAUGAGGAUAACCC [AstrosEXyTheA#3] , apparent KD of MS2 coat protein = 101

Lab entry: MS2 coat protein assay, sequence UACCGAUACGGAAGGAGCGUAGAAGUAGUACAUGAGGAUCACCCAUGUAUGGGUAAUUUCGUACAGGUAGGUCGCCGUAUCGGUA [SSAB NP+V+V2 #23] , apparent KD of MS2 coat protein = 35.5

Lab entry: MS2 coat protein assay, sequence UGAUCCUACAGAGAUACCAGUGCCGCUGAGUGACCAGACACAUGAGGAUCACCCAUGUAACACCCUUGGCAGCUCAACUAGAGGG [Same State Theophylline B GF19] , apparent KD of MS2 coat protein = 22

Lab entry: MS2 coat protein assay, sequence AGUACUCGAACGGAUACCAGCCGGACAUGAGGAUCACCCAUGUCCUACCAUGUUUCGGUUGGCCCUUGGCAGCCGUUCGUGUACA [Omei Theo B SS A v1] , apparent KD of MS2 coat protein = 736

Lab entry: MS2 coat protein assay, sequence AGCGAUAUGCAUGAUACCAGCUACAUGAGGAUCACCCAUGUGCGUCAGAAAUGACUGUGUAGCCCUUGGCAGCAUAAAGCAUGUA [Exclusion - Theophylline B (Freestyle 10)] , apparent KD of MS2 coat protein = 38.5
